assay: Safety index, ratio of IC50 for human kidney epithelial cells to IC50 for Entamoeba histolytica HMI:IMSS; format: toxicity, cell-based, Epithelial cell; conditions: read-out: Ratio IC50
Assay Endpoint: selectivity ratio

Fill in the blank: the reported selectivity ratio of CCc1ccccc1C1CC(c2cccc(Br)c2)=NN1c1nc2nc3ccccc3nc2s1 (centres undefined) is ____.
> 24.1

Now the same for Cc1ccc(C2CC(c3cccc(Br)c3)=NN2c2nc3nc4ccccc4nc3s2)cc1 (centres undefined)
> 600

Now the same for Clc1ccccc1C1CC(c2cccc(Br)c2)=NN1c1nc2nc3ccccc3nc2s1 (centres undefined)
> 88.2

Continuing:
Fill in the blank: the reported selectivity ratio of CC(C)c1ccccc1C1CC(c2cccc(Br)c2)=NN1c1nc2nc3ccccc3nc2s1 (centres undefined) is ____.
> 32.1

The measurements presented in this section are drawn from ChEMBL document CHEMBL1140966.
